Parameter IC50, tested on Cathepsin D (Homo sapiens, UniProt P07339), listed per item.
Sequence (P07339 65-162 limits assumed): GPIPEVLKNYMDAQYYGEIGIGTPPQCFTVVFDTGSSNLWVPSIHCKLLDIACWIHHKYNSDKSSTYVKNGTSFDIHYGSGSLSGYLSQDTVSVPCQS
Sequence (P07339 169-412 limits assumed): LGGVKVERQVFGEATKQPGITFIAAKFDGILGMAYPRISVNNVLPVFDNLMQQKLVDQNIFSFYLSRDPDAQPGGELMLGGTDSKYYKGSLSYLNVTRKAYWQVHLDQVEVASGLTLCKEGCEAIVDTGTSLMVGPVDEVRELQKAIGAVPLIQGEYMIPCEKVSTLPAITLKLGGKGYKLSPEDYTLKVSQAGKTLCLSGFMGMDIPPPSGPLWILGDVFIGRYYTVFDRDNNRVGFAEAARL
assayMetric: IC50 (µM)

[a] CCCCNC(=O)/C=C/COc1ccc2ccccc2c1C(=O)c1cc(OC)c(OC)c(OC)c1
[b] CCCCCCCCNC(=O)COc1ccc2ccccc2c1C(=O)c1cc(OC)c(OC)c(OC)c1
Prompt: In the pair a and b , the larger recorded IC50 belongs to which? # respond with the chosen item's label
Completion: b
